These measurements were taken from ChEMBL document CHEMBL1141054.

molecular target: Cytochrome P450 2D6 (Homo sapiens, UniProt P10635); assay: Inhibition against Cytochrome P450 2D6 prepared from baculovirus-infected insect cells using 3-[2-(N,N-diethyl-N-methylamino)ethyl]-7- methoxy-4-methylcoumarin; assay type: ADME
Sequence (P10635 whole entry): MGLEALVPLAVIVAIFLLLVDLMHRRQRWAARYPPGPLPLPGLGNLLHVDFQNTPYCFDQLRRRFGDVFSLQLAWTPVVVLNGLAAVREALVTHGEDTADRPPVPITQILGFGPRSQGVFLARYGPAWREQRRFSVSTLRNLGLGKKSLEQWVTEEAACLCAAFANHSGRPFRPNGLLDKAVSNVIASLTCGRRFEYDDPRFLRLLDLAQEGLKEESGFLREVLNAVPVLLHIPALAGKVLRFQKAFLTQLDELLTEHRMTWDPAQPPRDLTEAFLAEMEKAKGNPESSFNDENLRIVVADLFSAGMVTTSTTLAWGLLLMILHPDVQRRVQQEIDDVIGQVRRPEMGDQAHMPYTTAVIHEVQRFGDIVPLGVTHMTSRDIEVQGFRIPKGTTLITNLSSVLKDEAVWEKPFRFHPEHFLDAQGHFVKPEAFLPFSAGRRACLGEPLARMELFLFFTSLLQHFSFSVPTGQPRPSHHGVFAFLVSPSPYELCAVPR
METRIC_NAME: IC50

NC(=O)Cn1c(=O)c(CCO)c(-c2cc(Cl)ccc2O)c2cc(C(F)(F)F)ccc21 | > 100 µM
N#CCn1c(=O)c(CCO)c(-c2cc(Cl)ccc2O)c2cc(C(F)(F)F)ccc21 | 23 µM

Moving on to another compound below.
In: May I ask what IC50 has been recorded for `O=c1c(CCO)c(-c2cc(Cl)ccc2O)c2cc(C(F)(F)F)ccc2n1Cc1nn[nH]n1` ?
Out: > 100 µM

====

biological target: Cytochrome P450 3A4 (Homo sapiens, UniProt P08684); assay: Inhibition against Cytochrome P450 3A4 prepared from baculovirus-infected insect cells using 7-benzyloxy-4-trifluoromethylcoumarin; format: ADME
Sequence (P08684 whole entry): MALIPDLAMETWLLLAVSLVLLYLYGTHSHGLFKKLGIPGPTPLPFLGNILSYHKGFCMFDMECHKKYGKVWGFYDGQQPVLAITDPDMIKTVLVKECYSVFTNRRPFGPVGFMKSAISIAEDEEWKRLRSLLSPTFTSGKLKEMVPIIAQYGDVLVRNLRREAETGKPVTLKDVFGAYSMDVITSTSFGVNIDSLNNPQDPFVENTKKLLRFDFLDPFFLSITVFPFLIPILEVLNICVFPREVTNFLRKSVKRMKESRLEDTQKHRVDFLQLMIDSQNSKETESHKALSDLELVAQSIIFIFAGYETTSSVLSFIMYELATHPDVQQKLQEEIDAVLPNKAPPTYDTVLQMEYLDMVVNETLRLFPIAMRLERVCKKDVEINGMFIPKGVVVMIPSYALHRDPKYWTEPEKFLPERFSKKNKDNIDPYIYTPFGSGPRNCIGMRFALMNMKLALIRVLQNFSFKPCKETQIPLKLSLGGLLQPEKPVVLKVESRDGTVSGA
METRIC_NAME: pIC50
Recall that pIC50 is obtained by taking minus log10 of the concentration measured in molar.

In: Hello, I am looking for reported pIC50 with Cytochrome P450 3A4 (Homo sapiens, UniProt P08684) for `O=c1[nH]c2ccc(C(F)(F)F)cc2c(-c2cc(Cl)ccc2O)c1CCO` . Could you help?
Out: 5.09

====

biological target: Cytochrome P450 3A4 (Homo sapiens, UniProt P08684); experiment: Inhibition against Cytochrome P450 3A4 prepared from baculovirus-infected insect cells using resorufin benzylether; assay type: ADME
METRIC_NAME: IC50

In: May I ask what IC50 has been recorded for `O=c1[nH]c2ccc(C(F)(F)F)cc2c(-c2cc(Cl)ccc2O)c1CCO` ?
Out: > 100 µM

====

Each entry below lists one item and its recorded IC50 value.
molecular target: Cytochrome P450 2C9 (Homo sapiens); assay: Inhibition against Cytochrome P450 2C9 prepared from baculovirus-infected insect cells using 7-methoxy-4-trifluoromethylcoumarin; format: ADME
Give the number; µM is assumed, so skip it.

In: May I ask what IC50 has been recorded for `NC(=O)Cn1c(=O)c(CCO)c(-c2cc(Cl)ccc2O)c2cc(C(F)(F)F)ccc21` ?
Out: 16

In: May I ask what IC50 has been recorded for `O=c1c(CCO)c(-c2cc(Cl)ccc2O)c2cc(C(F)(F)F)ccc2n1Cc1nn[nH]n1` ?
Out: 19

In: May I ask what IC50 has been recorded for `O=c1[nH]c2ccc(C(F)(F)F)cc2c(-c2cc(Cl)ccc2O)c1CCO` ?
Out: 1.7

In: May I ask what IC50 has been recorded for `N#CCn1c(=O)c(CCO)c(-c2cc(Cl)ccc2O)c2cc(C(F)(F)F)ccc21` ?
Out: 3.9

====

biological target: UniProt P08684; test: Inhibition against Cytochrome P450 3A4 prepared from baculovirus-infected insect cells using 7-benzyloxy- 4-trifluoromethylcoumarin; assay type: ADME
METRIC_NAME: IC50
Report as: number unit

Example entries and their recorded answers appear below.
O=c1c(CCO)c(-c2cc(Cl)ccc2O)c2cc(C(F)(F)F)ccc2n1Cc1nn[nH]n1 | 30 µM
N#CCn1c(=O)c(CCO)c(-c2cc(Cl)ccc2O)c2cc(C(F)(F)F)ccc21 | 13 µM

Moving on to another compound below.
In: May I ask what IC50 has been recorded for `NC(=O)Cn1c(=O)c(CCO)c(-c2cc(Cl)ccc2O)c2cc(C(F)(F)F)ccc21` ?
Out: 26 µM

====

Target protein (sequence): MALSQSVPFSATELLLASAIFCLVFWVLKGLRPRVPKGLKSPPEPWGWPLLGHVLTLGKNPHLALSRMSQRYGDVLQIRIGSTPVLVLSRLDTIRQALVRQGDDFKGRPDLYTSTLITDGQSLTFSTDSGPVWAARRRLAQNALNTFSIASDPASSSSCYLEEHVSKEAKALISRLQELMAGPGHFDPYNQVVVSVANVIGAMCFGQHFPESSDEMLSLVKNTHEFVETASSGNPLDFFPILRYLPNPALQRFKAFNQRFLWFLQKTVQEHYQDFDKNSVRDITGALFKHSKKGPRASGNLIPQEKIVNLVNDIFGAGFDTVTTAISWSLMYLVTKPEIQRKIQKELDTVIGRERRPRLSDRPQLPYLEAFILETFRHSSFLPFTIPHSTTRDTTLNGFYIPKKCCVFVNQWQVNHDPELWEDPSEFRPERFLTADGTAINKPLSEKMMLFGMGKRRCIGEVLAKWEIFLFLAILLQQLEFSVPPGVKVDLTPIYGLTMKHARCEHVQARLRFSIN
METRIC_NAME: IC50

O=c1c(CCO)c(-c2cc(Cl)ccc2O)c2cc(C(F)(F)F)ccc2n1Cc1nn[nH]n1 | > 100 µM

Moving on to another compound below.
In: May I ask what IC50 has been recorded for `NC(=O)Cn1c(=O)c(CCO)c(-c2cc(Cl)ccc2O)c2cc(C(F)(F)F)ccc21` ?
Out: > 100 µM

====

target: Cytochrome P450 2C9 (Homo sapiens); assay: Inhibitory activity against Cytochrome P450 2C9; format: ADME
pIC50: −log10 of the molar value.
Use 5 as the dividing line for pIC50, with the line itself on the class 1 side and lower values as class 0.

Some entries whose results are on file:
COc1ccc(Cl)cc1-c1c(CCO)c(O)nc2ccc(C(F)(F)F)cc12 | class 1
CCN(CC)C[C@@H](O)CSc1c(-c2cc(Cl)ccc2O)c2cc(C(F)(F)F)ccc2[nH]c1=O | class 0
CC(=O)CC1Oc2ccc(Cl)cc2-c2c1c(=O)[nH]c1ccc(C(F)(F)F)cc21 (configuration not stated) | class 0
Cn1c(=O)c(CCO)c(-c2cc(Cl)ccc2O)c2cc(C(F)(F)F)ccc21 | class 1

In: # bool: pIC50 of `CCN(CC)C[C@H](O)CSc1c(-c2cc(Cl)ccc2O)c2cc(C(F)(F)F)ccc2[nH]c1=O` >= 5
Out: class 0

In: # bool: pIC50 of `O=c1[nH]c2ccccc2c(Cc2ccccc2)c1-[n+]1ccccc1` >= 5
Out: class 0

====

molecular target: Cytochrome P450 2C9 (Homo sapiens, UniProt P11712); assay: Inhibition against Cytochrome P450 2C9; format: ADME
Sequence (P11712 whole entry): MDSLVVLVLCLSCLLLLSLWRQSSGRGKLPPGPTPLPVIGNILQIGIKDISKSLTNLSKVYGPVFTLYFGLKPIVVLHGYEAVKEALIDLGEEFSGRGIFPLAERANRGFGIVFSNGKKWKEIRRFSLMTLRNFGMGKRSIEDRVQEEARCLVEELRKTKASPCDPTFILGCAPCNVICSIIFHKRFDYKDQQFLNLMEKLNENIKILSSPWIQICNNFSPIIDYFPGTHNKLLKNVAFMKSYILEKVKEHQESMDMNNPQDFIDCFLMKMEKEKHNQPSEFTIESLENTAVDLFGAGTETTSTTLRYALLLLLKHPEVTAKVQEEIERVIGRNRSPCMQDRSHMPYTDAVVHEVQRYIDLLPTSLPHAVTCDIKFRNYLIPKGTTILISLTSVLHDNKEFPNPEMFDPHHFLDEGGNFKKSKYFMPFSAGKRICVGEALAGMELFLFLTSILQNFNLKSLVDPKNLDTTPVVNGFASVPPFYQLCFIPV
METRIC_NAME: pIC50
Recall that pIC50 is obtained by taking minus log10 of the concentration measured in molar.

In: May I ask what pIC50 has been recorded for O=c1[nH]c2ccc(C(F)(F)F)cc2c(-c2cc(Cl)ccc2O)c1CCO [BMS-223131] ?
Out: 5.77
